Target: T1, cynomolgus soluble urokinase plasminogen activator receptor (cynomolgus suPAR) (cynomolgus, UniProt Q9GK78 23-303, limits assumed)
T1 construct: also called cynomolgus uPAR; cynoPLAUR-His
T1 sequence (Q9GK78 23-303 limits assumed): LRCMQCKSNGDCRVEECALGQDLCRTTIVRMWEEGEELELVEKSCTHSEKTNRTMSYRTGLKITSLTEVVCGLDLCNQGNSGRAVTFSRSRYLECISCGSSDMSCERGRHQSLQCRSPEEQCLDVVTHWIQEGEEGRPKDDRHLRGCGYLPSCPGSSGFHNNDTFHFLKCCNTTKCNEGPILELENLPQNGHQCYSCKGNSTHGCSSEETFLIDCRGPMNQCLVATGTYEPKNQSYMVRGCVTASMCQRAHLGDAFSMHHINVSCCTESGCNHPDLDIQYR
Test: BLI (Octet) off-rate screen of scFv
observable: koff (s⁻¹)
Quick reminder: number only, in s⁻¹, skip the unit.

Previously resolved entries follow.
[[record]]
binder = "suPAR_DB01_H01 (scFv, V domains shown, Screened as scFv) VH: QVQLVQSGAEVKKPGASVKVSCKASGDTFTSYYMHWVRQAPGQGLEWMGWIDPENGNTIYDQKFQGRVTMTRDTSTSTVYMELSSLRSEDTAVYYCARGYDVDWFVYWGQGTLVTVSS VL: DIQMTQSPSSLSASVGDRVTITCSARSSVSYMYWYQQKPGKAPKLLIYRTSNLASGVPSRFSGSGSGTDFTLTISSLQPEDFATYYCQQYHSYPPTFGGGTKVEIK"
observable = "koff"
numeric_readout = 0.000122

[[record]]
binder = "suPAR_DB01_G07 (scFv, V domains shown, Screened as scFv) VH: QVQLVQSGAEVKKPGASVKVSCKASGNTFTSYYMHWVRQAPGQGLEWMGWIDPENGNTIYDQKFQGRVTMTRDTSTSTVYMELSSLRSEDTAVYYCARGYDVDWFVYWGQGTLVTVSS VL: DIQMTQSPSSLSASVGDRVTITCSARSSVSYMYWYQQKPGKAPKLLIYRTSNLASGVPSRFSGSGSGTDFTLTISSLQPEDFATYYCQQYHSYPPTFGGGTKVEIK"
observable = "koff"
numeric_readout = "1.73e-05"


// next entry
Query suPAR_DB01_F06 (scFv, V domains shown, Screened as scFv) VH: QVQLVQSGAEVKKPGASVKVSCKASGYTFTSYYMHWVRQAPGQGLEWMGWIDHENGNTIYAQKFQGRVTMTRDTSTSTVYMELSSLRSEDTAVYYCARGYDVDWFVYWGQGTLVTVSS VL: DIQMTQSPSSLSASVGDRVTITCSARQSISYMYWYQQKPGKAPKLLIYRTSNLQSGVPSRFSGSGSGTDFTLTISSLQPEDFATYYCQQYHSYPPTFGGGTKVEIK yields koff of 4.98e-05
